The following compounds are shown together with reported Potency values.
# testDescription: qHTS Assay for Identifying Gametocytocidal Compounds (AID 743244); further: potency means the concentration at half of the fitted maximal effect
# conditionDescription: P. falciparum 3D7 stage III-V gametocytes, alamarBlue, 72 h
Results filed as inconclusive are left out. Activity calls are given as the source filed them. The call rests on the fitted dose curve; in most records, active means well fitted curve in the direction sought with a large enough effect; inconclusive means small, poorly fitted or top-dose-only effect, or another doubt; inactive means no such curve, though single readings can be large or run the other way.

The examples below pair each entry with its known result.
compound: OCC(S)CS (configuration not stated)
quantity: Potency
reported: 3.98 µM (active)
--
compound: CO[C@H]1C=CO[C@@]2(C)Oc3c(C)c(O)c4c(O)c(c(/C=N/N5CCN(C6CCCC6)CC5)c(O)c4c3C2=O)NC(=O)/C(C)=C\C=C[C@H](C)[C@H](O)[C@@H](C)[C@@H](O)[C@@H](C)[C@H](OC(C)=O)[C@@H]1C
quantity: Potency
reported: 10 µM (active)
--
compound: CCCCCCCCCCCCCC[n+]1ccc(C)cc1
quantity: Potency
reported: 7.94 µM (active)

Note: attention shifts to another entry.
Could you share which Potency value was measured for C/C1=C2N=C(/C=C3N=C(/C(C)=C4\[N-][C@@](C)([C@@H]5N=C1[C@](C)(CCC(=O)NCC(C)OP(=O)(O)O[C@H]1[C@@H](O)[C@@H](n6cnc7cc(C)c(C)cc76)O[C@@H]1CO)[C@H]5CC(N)=O)[C@@](C)(CC(N)=O)[C@@H]4CCC(N)=O)[C@@](C)(CC(N)=O)[C@@H]\3CCC(N)=O)C(C)(C)[C@@H]/2CCC(N)=O.CC(=O)O.[Co] (some centres not stated) ?
20 µM (active)

###

# targetSystem: Voltage-gated inwardly rectifying potassium channel KCNH2 (Homo sapiens) (UniProt Q12809)
# Sequence (Q12809 whole entry, looked up): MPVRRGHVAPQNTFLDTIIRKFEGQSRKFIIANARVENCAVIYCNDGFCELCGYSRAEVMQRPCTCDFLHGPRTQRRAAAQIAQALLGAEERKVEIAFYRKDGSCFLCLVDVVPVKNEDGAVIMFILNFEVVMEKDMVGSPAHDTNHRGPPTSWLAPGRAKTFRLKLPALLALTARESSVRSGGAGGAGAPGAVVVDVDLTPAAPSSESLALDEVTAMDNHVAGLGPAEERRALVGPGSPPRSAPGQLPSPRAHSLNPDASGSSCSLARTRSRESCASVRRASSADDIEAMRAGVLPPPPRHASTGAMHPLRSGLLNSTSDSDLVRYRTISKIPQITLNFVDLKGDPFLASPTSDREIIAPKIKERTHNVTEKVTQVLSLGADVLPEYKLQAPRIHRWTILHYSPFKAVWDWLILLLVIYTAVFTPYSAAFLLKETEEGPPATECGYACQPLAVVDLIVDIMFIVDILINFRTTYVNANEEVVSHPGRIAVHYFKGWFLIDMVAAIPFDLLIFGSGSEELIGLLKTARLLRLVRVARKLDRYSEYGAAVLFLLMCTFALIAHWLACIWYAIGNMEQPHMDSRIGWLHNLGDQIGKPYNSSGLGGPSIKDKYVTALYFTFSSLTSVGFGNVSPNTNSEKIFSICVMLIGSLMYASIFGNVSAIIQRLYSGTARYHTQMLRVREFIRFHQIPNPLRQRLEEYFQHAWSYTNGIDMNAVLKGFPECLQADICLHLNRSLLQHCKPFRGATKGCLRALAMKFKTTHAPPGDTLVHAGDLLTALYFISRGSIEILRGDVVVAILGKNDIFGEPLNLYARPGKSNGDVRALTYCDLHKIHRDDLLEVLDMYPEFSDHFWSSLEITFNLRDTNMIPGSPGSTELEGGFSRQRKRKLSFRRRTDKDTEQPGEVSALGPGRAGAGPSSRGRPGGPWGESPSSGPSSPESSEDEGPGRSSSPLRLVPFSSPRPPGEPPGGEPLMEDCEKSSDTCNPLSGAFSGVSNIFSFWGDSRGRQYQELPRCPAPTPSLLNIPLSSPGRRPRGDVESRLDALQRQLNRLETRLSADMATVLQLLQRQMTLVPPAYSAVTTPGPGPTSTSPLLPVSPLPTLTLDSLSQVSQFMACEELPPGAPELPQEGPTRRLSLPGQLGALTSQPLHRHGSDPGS
# testDescription: qHTS Assay for Small Molecule Inhibitors of the Human hERG Channel Activity (AID 588834);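 further: lower thallium flux fluorescence means stronger hERG block; nearly all actives have a fitted effect of over 50% in size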
# conditionDescription: U2OS BacMam hERG, FluxOR thallium flux fluorescence; series mostly up to 46.1 µM
Results filed as inconclusive are left out. Activity calls are given as the source filed them. Calls follow the shape of the dose curve; as a rule, active = well fitted inhibition curve with a large enough effect; inconclusive = small, poorly fitted or top-dose-only effect; inactive = flat fitted curve, though single readings scatter. Peptide text beside a SMILES is read from it.
Reply using exactly one outcome from T = active, F = inactive

Study these solved cases before continuing.
compound: IC(I)I
assignedClass: F
--
compound: CC(C)(C)NC(=O)[C@@H]1C[C@@H]2CCCC[C@@H]2CN1C[C@@H](O)[C@H](Cc1ccccc1)NC(=O)[C@H](CC(N)=O)NC(=O)c1ccc2ccccc2n1
assignedClass: T
--
compound: OCC(S)CS (stereo not given)
assignedClass: F
--
compound: CC(=O)N[C@@H](CC(=O)O)C(=O)N[C@@H](CCC(=O)O)C(=O)O (Ac-Asp-Glu-OH)
assignedClass: F

Now examine the next entry.
Assay outcome for COc1ccc2c3c1O[C@H]1C[C@@H](O)C=C[C@@]31CCN(C)C2 : what was it?
F

###

# Tested on: HACAT
# testDescription: qHTS assay to identify novel small-molecules to repurpose for Merkel cell carcinoma treatment (AID 1296009); further: nearly all actives have a fitted effect of over 60% in size
# conditionDescription: MCC and control cell lines, CellTiter-Glo viability, 72 h; at 44.8 µM (top of the series) unless noted
# Text: MCC is a rare and aggressive neuroendocrine skin cancer with limited treatment options. Approximately 80% of MCCs have the Merkel cell polyomavirus (MCPyV) DNA integrated into the host genome (virus-positive: VP-MCC) and viral oncogenes drive oncogenesis. The remaining MCCs are virus-negative (VN-MCC) and are caused by UV mutagenesis. […] Using cell viability as a readout (CellTiter-Glo assay) we found both overlapping and distinct drugs that can be repurposed for the treatment of VP-MCC and VN-MCC. […]
Records with an inconclusive call do not appear. Activity calls are given as the source filed them. The call rests on the fitted dose curve; in most records, active means well fitted inhibition curve with a large enough effect; inconclusive means small, poorly fitted or top-dose-only effect; inactive means flat fitted curve, though single readings scatter.
quantity: outcome

The examples below pair each entry with its known result.
compound: COC(=O)C1C(CC(C)=O)C=CC(O)C12Oc1cc(C)cc(O)c1C2=O (stereo unspecified)
outcome: inactive
//
compound: COc1ccc2c3c1O[C@H]1C[C@@H](O)C=C[C@@]31CCN(C)C2
outcome: inactive
//
compound: CC1CC(O)C2(C)C(C(=O)O)=CCCC2C1(C)CCc1ccoc1 (stereo unspecified)
outcome: inactive
//
compound: CC1(C)CC(=O)N(CCCCN2CCN(c3ncccn3)CC2)C(=O)C1
outcome: inactive
//
compound: Cc1cc(Nc2ncc(Cl)c(Nc3ccccc3S(=O)(=O)C(C)C)n2)c(OC(C)C)cc1C1CCNCC1
outcome: inactive
//
compound: C=C(C(=O)O)C1CCC(C)C2CCC(=O)OC2(C)C1 (stereo unspecified)
outcome: inactive
//
compound: CCOc1nc2cccc(C(=O)OCc3oc(=O)oc3C)c2n1Cc1ccc(-c2ccccc2-c2noc(O)n2)cc1
outcome: inactive
//
compound: CC1=C(C)C(=O)OC(C(C)C2C(O)CC3C4C5OC5C5(O)CC(OC6OC(CO)C(O)C(O)C6O)CC(O)C5(C)C4CCC32C)C1 (stereo unspecified)
outcome: inactive [at 17.4 µM]

Could you share which outcome value was measured for CC1(C)C(O)CCC2(C)C1C(O)C=C1COC(=O)C12O (stereo unspecified) ?
inactive

Could you share which outcome value was measured for CCC[C@@H]1C[C@@H](C(=O)N[C@@H]([C@H]2O[C@H](SC)[C@H](O)[C@@H](O)[C@@H]2O)[C@@H](C)O)N(C)C1 ?
inactive

Could you share which outcome value was measured for CCCCN(CCCC)C(=O)CN1C[C@H](c2ccc3c(c2)OCO3)[C@@H](C(=O)O)[C@@H]1c1ccc(OC)cc1 ?
inactive

Could you share which outcome value was measured for C/C1=C\C[C@H](O[C@@H]2O[C@H](CO)[C@@H](O)[C@H](O)[C@H]2O)/C(C)=C/[C@H]2OC(=O)[C@H](C)[C@@H]2CC1 ?
inactive [at 17.4 µM]

Could you share which outcome value was measured for CC(C)[C@H]1CCC(CO)=C[C@@H]1/C=C(\CO)C(=O)O ?
inactive

Could you share which outcome value was measured for O=C(O)CCc1cc2ccoc2cc1O[C@@H]1O[C@H](CO[C@@H]2OC[C@](O)(CO)[C@H]2O)[C@@H](O)[C@H](O)[C@H]1O ?
inactive [at 17.4 µM]

Could you share which outcome value was measured for CC1=C2C3OC(=O)C(C)C3(O)CCC2(C)CCC1=O (stereo unspecified) ?
inactive

###

# Test system: HeLa
# testDescription: Primary qHTS to identify gynecologic anti-cancer compounds using libraries of approved drugs and bioactive compounds (AID 1345084); further: on the % scale 0 is the no-effect control and ±100 the full control effect; nearly all actives have a fitted effect of over 55% in size
# conditionDescription: Gynecologic cancer cell panel viability, ATPlite luminescence, 48 h; series mostly up to 57.5 µM
Results filed as inconclusive are left out. Calls of active or inactive are those of the source. The call rests on the fitted dose curve; in most records, active means well fitted cell-killing curve with a large enough effect; inconclusive means small, poorly fitted or top-dose-only effect, or effect the other way; inactive means flat fitted curve, though single readings scatter.
quantity: activity change, negative = cytotoxicity

compound: CC1=CC[C@]2(C(=O)O[C@@H]3O[C@H](CO[C@@H]4O[C@H](CO)[C@@H](O[C@@H]5O[C@@H](C)[C@H](O)[C@@H](O)[C@H]5O)[C@H](O)[C@H]4O)[C@@H](O)[C@H](O)[C@H]3O)CC[C@]3(C)C(CCC4[C@@]5(C)C[C@@H](O)[C@H](O)[C@@](C)(CO)C5CC[C@]43C)C2C1C (some centres undefined)
targetSystem: HeLa
reported: 3.93% [at 11.6 µM] (inactive)
--
compound: O=C(c1ccc(F)cc1)C1CCN(CCn2c(=O)nc3n(c2=O)CCCC3)CC1
targetSystem: HeLa
reported: inactive
--
compound: c1ccc(Cc2ncc3c(n2)CCNCC3)cc1
targetSystem: HeLa
reported: inactive
--
compound: CC(=O)OC[C@@]12[C@@H](OC(C)=O)C[C@@H](C)[C@](C)([C@@H]3C[C@H]4C=CO[C@H]4O3)[C@H]1CCC[C@]21CO1
targetSystem: HeLa
reported: inactive

###

# System: HACAT
# testDescription: qHTS assay to identify novel small-molecules to repurpose for Merkel cell carcinoma treatment (AID 1296009); further: nearly all actives have a fitted effect of over 60% in size
# conditionDescription: MCC and control cell lines, CellTiter-Glo viability, 72 h; at 44.8 µM (top of the series) unless noted
Results filed as inconclusive are left out. The source made the active and inactive calls. Calls follow the shape of the dose curve; as a rule, active = well fitted inhibition curve with a large enough effect; inconclusive = small, poorly fitted or top-dose-only effect; inactive = flat fitted curve, though single readings scatter.
quantity: outcome

The examples below pair each entry with its known result.
compound: CC1=CC(=O)CC(C)(C)C1CCC(C)OC1OC(COC(=O)c2cc(O)c(O)c(O)c2)C(O)C(O)C1O (centres undefined)
reported: inactive [at 17.4 µM]

compound: C=C1CC[C@H]2[C@@H](/C=C(\C)C(=O)[C@@]3(OC(C)=O)C[C@H](C)[C@H](OC(C)=O)[C@@H]3[C@H]1OC(C)=O)C2(C)C
reported: inactive [at 17.4 µM]

compound: COc1cc(COC2OC(CO)C(O)C(O)C2O)cc(OC)c1O (centres undefined)
reported: inactive

compound: CC(C)C1=CCC(C)(O)C(OC2OC(CO)C(O)C(O)C2O)C1 (centres undefined)
reported: inactive

compound: CC1CCC2C(C)(C)CC(C)(CO)C2(O)C1C(=O)O (centres undefined)
reported: inactive

compound: COc1ccc(C(OC2OC(CO)C(O)C(O)C2O)C(C)O)cc1 (centres undefined)
reported: inactive

Note: attention shifts to another entry.
Could you share which outcome value was measured for C=C1CCC2C(C)(CO[C@@H]3O[C@H](CO)[C@@H](O)[C@H](O)[C@H]3O)C(O)CCC2(C)C1C(=O)CC1=CCOC1=O (some centres undefined) ?
inactive [at 17.4 µM]
